# Tested on: influenza virus A/Taiwan/1/86 (H1N1)
# ASSAY INFO: organism not typed
# Assay type: cell-based
# RECORDED CONDITIONS: 72 h; MDCK cells infected with influenza A/Taiwan/1/86 (H1N1), MOI 0.001 or 0.01; CPE via ATP levels three days post-virus exposure
MEASURE NAME: IC50 (nM)
Answers are plain numbers, in nM.

Solved entries (count: 2):
>>> measurement("Cc1nc(-c2c[nH]c3c(F)cc(F)cc23)nc(N[C@H]2CCC[C@@H](NC(=O)c3csc(C(=O)O)n3)C2)c1F")
2
>>> measurement("O=C(N[C@H]1CCC[C@@H](Nc2nc(-c3c[nH]c4c(F)cc(F)cc34)nc(C(=O)O)c2F)C1)c1cnn[nH]1")
7

# return IC50 for each item in the list
1. Cc1nc(-c2c[nH]c3c(F)cc(F)cc23)nc(N[C@H]2CCC[C@@H](NC(=O)c3cnn(C)c3)C2)c1F
2. Cc1nc(-c2c[nH]c3c(F)cc(F)cc23)nc(N[C@H]2CCC[C@@H](NC(=O)c3cnn[nH]3)C2)c1F
3. O=C(N[C@H]1CCC[C@@H](Nc2cncc(-c3c[nH]c4c(F)cc(F)cc34)n2)C1)N1CCCC1

Response:
2
0.2
26

###

# ASSAY INFO: in vitro
# RECORDED CONDITIONS: dog
Provide the recorded CC50 at 3 days for the entries that follow.
One number for each entry, in µM.

Solved entries (count: 4):
>>> measurement("Cc1nc(-c2c[nH]c3c(F)cc(F)cc23)nc(N[C@H]2CCC[C@@H](NC(=O)c3cn(C)cn3)C2)c1F [Compound 13]")
10.4
>>> measurement("O=C(N[C@H]1CCC[C@@H](Nc2cnnc(-c3c[nH]c4c(F)cc(F)cc34)n2)C1)N1CCCC1 [Compound 28]")
15.5
>>> measurement("Cc1nc(-c2c[nH]c3c(F)cc(F)cc23)nc(N[C@H]2CCC[C@@H](NC(=O)c3cnn[nH]3)C2)c1F [Compound 15]")
3.4
>>> measurement("O=C(N[C@H]1CCC[C@@H](Nc2cncc(-c3c[nH]c4c(F)cc(F)cc34)n2)C1)N1CCCC1 [Compound 25]")
9.7

# next molecule below
Prompt: Could you tell me which CC50 at 3 days is on file for Cc1nc(-c2c[nH]c3c(F)cc(F)cc23)nc(N[C@H]2CCC[C@@H](NC(=O)c3csc(C(=O)O)n3)C2)c1F [Compound 29] ?
Response: 21

###

# ASSAY INFO: in vitro
# RECORDED CONDITIONS: dog
MEASURE NAME: CC50 at 3 days

>>> measurement("O=C(N[C@H]1CCC[C@@H](Nc2nc(-c3c[nH]c4c(F)cc(F)cc34)nc(C(=O)O)c2F)C1)c1cnn[nH]1 [Compound 36]")
"> 25 µM"

# return CC50 at 3 days for each item in the list
1. Cc1nc(-c2c[nH]c3ncncc23)nc(N[C@@H]2CCC[C@H](NC(=O)c3ccccn3)C2)c1F [Compound 21]
2. Cc1nc(-c2c[nH]c3c(F)cc(F)cc23)nc(N[C@H]2CCC[C@@H](NC(=O)c3cnn(C)c3)C2)c1F [Compound 14]
3. O=C(O)[C@H]1C2CCC(CC2)[C@@H]1Nc1cnnc(-c2c[nH]c3c(F)cc(F)cc23)n1 (racemic) [Compound 6]

Response:
1. > 25 µM
2. > 25 µM
3. > 5 µM
